FYI, the data here is from patent US10851067B2.

molecular target: Kv7.2/7.3 (Homo sapiens, UniProt O43525+O43526); test: Kv7.2/7.3 Activation Assay, QPatch single concentration screen; assay type: cell-based; set-up: host or cells: HEK cells, tetracycline-inducible expression; conditions: Kv7.2/Kv7.3 co-expressing HEK cells, compound concentration 3 μM, steady-state current at end of 2 s pulse to −30 mV
READOUT_LABEL: Kv7.2/7.3 Activity: increase over baseline in current

Enquiry: What Kv7.2/7.3 Activity: increase over baseline in current value was documented for this compound, "CC(C)(C)CC(=O)Nc1nc2ccc(OC(F)F)cc2n1C1(C)CCC1" ?
Return: ++ (3-3.9 (++))

Enquiry: Item CC(=O)c1c(F)ccc2nc(NC(=O)CC(C)(O)c3ccccc3)n(C3(C)CCC3)c12 (single isomer, unassigned) has what recorded Kv7.2/7.3 Activity: increase over baseline in current?
Return: O

Enquiry: // returns reported Kv7.2/7.3 Activity: increase over baseline in current for input "CC(C)(CC(=O)Nc1nc2c(F)cc(O)cc2n1C1CCC1)C(F)(F)F"
Return: ++ (3-3.9 (++))

Enquiry: // Kv7.2/7.3 Activity: increase over baseline in current lookup, key: CC(C)(C)Cn1c(NC(=O)CC(C)(O)c2ccccc2)nc2ccc(C#N)cc21 (single isomer, unassigned)
Return: + (1.2-2.9 (+))

Enquiry: Look up Kv7.2/7.3 Activity: increase over baseline in current: CC(O)(CC(=O)Nc1nc2ccc(OC(F)F)c(F)c2n1C1(C)CCC1)c1ccccc1 (single isomer, unassigned)
Return: ++ (3-3.9 (++))

Enquiry: # lookup: Kv7.2/7.3 Activity: increase over baseline in current of CC(O)(CC(=O)Nc1nc2ccc(C#N)cc2n1C1(C)CCC1)c1c(F)cccc1F (single isomer, unassigned) [Example 467]
Return: + (1.2-2.9 (+))

Kindly review the next compound as well.
Enquiry: # input compound: "CC(C)(CC(=O)Nc1nc2cc(F)cc(F)c2n1C1CCC1)C(F)(F)F" ; wanted: its Kv7.2/7.3 Activity: increase over baseline in current
Return: ++ (3-3.9 (++))
